molecular target: Prostaglandin G/H synthase 1 (Rattus norvegicus); type: functional; note: assay procedure not described here
Sequence (Q63921 whole entry): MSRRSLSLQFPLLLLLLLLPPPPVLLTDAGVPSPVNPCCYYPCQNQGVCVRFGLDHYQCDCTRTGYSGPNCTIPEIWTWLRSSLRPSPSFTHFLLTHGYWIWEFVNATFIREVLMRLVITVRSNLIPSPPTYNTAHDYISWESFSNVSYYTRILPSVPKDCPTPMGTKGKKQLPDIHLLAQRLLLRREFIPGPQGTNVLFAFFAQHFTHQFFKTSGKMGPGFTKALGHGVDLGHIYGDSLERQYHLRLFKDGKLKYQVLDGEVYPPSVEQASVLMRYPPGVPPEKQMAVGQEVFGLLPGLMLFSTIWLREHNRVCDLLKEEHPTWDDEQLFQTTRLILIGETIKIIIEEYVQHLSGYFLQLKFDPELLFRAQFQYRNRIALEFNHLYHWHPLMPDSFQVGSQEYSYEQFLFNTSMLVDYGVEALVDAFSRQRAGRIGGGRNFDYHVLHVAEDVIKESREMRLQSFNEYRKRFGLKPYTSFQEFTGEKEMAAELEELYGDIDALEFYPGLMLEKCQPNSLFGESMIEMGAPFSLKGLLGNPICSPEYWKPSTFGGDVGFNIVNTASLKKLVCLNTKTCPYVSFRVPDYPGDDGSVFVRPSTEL
test readout: AC50

CC(C)(C)C(=O)Oc1ccc(S(=O)(=O)Nc2ccccc2C(=O)NCC(=O)O)cc1 | > 30 µM
C=CCC1(C(C)CC)C(=O)NC(=O)NC1=O (centres undefined) | > 10 µM
CCC(C(=O)O)c1ccc(N2Cc3ccccc3C2=O)cc1 (centres undefined) | 0.8 µM
CN1C(=O)OC(C)(C)C1=O | > 10 µM
CC(C)(C)c1cc(C(C)(C)C)c(NC(=O)c2c[nH]c3ccccc3c2=O)cc1O | > 30 µM
C#C[C@]1(O)CC[C@H]2[C@@H]3[C@H](C)CC4=C(CCC(=O)C4)[C@H]3CC[C@@]21C | 4.5 µM
C1CCC(C(CC2CCCCN2)C2CCCCC2)CC1 (centres undefined) | > 30 µM
COc1cc2nc(N(C)CCCNC(=O)C3CCCO3)nc(N)c2cc1OC (centres undefined) | > 30 µM
CC(=O)O[C@H]1C[C@@H]2CC[C@@H]3[C@H](CC[C@@]4(C)[C@H]3C[C@H]([N+]3(C)CCCCC3)[C@@H]4OC(C)=O)[C@@]2(C)C[C@@H]1N1CCCCC1 | 14 µM

---

Target: Estrogen receptor (Homo sapiens); note: assay procedure not described here
Sequence (P03372 whole entry): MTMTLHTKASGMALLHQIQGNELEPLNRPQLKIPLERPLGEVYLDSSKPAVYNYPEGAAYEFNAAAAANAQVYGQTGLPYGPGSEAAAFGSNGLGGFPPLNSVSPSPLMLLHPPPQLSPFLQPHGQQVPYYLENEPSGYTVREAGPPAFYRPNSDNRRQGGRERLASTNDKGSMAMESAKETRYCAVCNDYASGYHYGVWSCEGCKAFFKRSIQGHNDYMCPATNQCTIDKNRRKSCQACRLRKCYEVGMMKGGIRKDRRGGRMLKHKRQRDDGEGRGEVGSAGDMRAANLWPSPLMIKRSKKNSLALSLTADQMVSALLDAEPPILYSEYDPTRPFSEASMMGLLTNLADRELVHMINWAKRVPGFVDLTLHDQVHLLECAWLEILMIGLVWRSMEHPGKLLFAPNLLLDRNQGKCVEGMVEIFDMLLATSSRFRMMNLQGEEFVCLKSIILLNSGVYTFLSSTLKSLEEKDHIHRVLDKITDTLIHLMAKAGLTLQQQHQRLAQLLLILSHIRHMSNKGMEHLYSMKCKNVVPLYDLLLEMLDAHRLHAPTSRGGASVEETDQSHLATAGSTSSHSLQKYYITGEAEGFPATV
test readout: AC50

CN(C)CC/C=C1\c2ccccc2CSc2ccccc21 [DOTHIEPIN] | > 30 µM
NCC[C@H](O)C(=O)N[C@@H]1C[C@H](N)[C@@H](O[C@H]2O[C@H](CN)[C@@H](O)[C@H](O)[C@H]2O)[C@H](O)[C@H]1O[C@H]1O[C@H](CO)[C@@H](O)[C@H](N)[C@H]1O | > 10 µM
COc1ccccc1OCC(O)CN1CCN(CC(=O)Nc2c(C)cccc2C)CC1 (stereo not given) | > 30 µM
O=C(O)CCCCCCNC1c2ccccc2CCc2ccccc21 | > 30 µM
CCCCCCOc1ccccc1C(N)=O [EXALAMIDE] | > 30 µM
CC(C)(C)c1cc(C(C)(C)C)c(NC(=O)c2c[nH]c3ccccc3c2=O)cc1O | > 30 µM
CC[C@H]1[C@@H](O)[C@@H]2[C@H](CC[C@]3(C)[C@@H]([C@H](C)CCC(=O)O)CC[C@@H]23)[C@@]2(C)CC[C@@H](O)C[C@@H]12 | > 30 µM
CCC1(CC)C(=O)NCC(C)C1=O (stereo not given) | > 30 µM
Cc1cc(O)c(C(=O)N[C@@H](C(=O)N[C@@H]2C(=O)N3C(C(=O)O)=C(CSc4nnnn4C)CS[C@H]23)c2ccc(O)cc2)cn1 [CEFPIRAMIDE] | > 30 µM
COc1ccc2c3c1O[C@H]1[C@@H](O)C=C[C@H]4[C@@H](C2)N(C)CC[C@@]341 | > 30 µM
CCC(CC)(CC(=O)Nc1cccc(/C=C/c2nc(C3CCC3)cs2)c1)C(=O)O | > 30 µM
CC(C)(C)C(=O)Oc1ccc(S(=O)(=O)Nc2ccccc2C(=O)NCC(=O)O)cc1 | > 30 µM
COc1ccccc1OCCNCC(O)c1ccc(C)c(S(N)(=O)=O)c1 (stereo not given) | > 30 µM
CCc1c(Cl)c(O)c(Cl)c(O)c1C(=O)O[C@H]1[C@H](O)[C@H](OC)[C@H](OC/C2=C\C=C\C[C@H](O)/C(C)=C/[C@H](CC)[C@@H](O[C@@H]3OC(C)(C)[C@@H](OC(=O)C(C)C)[C@H](O)[C@@H]3O)/C(C)=C/C(C)=C/C[C@@H]([C@@H](C)O)OC2=O)O[C@@H]1C | > 30 µM
COc1cc(NC(C)CCCN)c2ncccc2c1 (stereo not given) | 6.7 µM
